Origin of values: PubChem BioAssay AID588590

Target: DNA polymerase iota (Homo sapiens) (UniProt Q9UNA4)
Sequence (Q9UNA4 whole entry, looked up): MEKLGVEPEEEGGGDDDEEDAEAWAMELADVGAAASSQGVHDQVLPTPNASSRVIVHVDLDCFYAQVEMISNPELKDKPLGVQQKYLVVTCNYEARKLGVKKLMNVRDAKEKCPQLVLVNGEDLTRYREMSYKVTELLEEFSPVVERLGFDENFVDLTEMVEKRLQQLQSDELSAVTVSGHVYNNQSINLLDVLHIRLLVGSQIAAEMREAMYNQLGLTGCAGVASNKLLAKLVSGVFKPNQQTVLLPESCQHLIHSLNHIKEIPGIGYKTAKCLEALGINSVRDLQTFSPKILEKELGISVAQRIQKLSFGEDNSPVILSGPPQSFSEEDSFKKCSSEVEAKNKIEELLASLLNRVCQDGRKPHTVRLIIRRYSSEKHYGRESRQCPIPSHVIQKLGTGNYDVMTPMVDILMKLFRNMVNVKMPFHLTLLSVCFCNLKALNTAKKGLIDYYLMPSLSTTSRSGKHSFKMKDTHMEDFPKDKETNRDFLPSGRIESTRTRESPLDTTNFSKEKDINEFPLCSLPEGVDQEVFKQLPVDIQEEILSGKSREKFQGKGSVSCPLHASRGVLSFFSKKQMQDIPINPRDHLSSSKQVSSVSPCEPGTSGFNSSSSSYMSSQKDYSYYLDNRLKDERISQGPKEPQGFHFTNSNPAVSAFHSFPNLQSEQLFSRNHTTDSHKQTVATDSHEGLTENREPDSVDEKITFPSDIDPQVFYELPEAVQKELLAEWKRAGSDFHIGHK
Experiment: qHTS for Inhibitors of Polymerase Iota
Conditions: Pol iota fluorescent replication assay, 10 min; series mostly up to 115 µM
Screen size: about 390,000 compounds; about 4,000 (1%) were called active. Not shown: some 7% with an inconclusive outcome. Calls follow the shape of the dose curve; as a rule, active = well fitted inhibition curve with a large enough effect; inconclusive = small, poorly fitted or top-dose-only effect, or another doubt; inactive = no such curve, though single readings can be large or run the other way. This is one part of a sample in which actives are shown more often than they occur.
Possible outcomes: active, inactive

# COMPOUND, TGT, ANSWER LABEL
data = [
    ("Cc1cccc(N(C(=O)c2sc(C)nc2C)C(C(=O)NCC2CCCO2)c2ccccc2)c1 (stereo not drawn)", "DNA polymerase iota (Homo sapiens) (UniProt Q9UNA4)", "inactive"),
    ("CC(C)CC(NS(=O)(=O)c1ccc2c(c1)oc(=O)n2C)C(=O)NCc1ccccc1Cl (stereo not drawn)", "DNA polymerase iota (Homo sapiens) (UniProt Q9UNA4)", "inactive"),
    ("COc1cc(OC)cc(-c2nc3nc(C)c(CCC(=O)Nc4ccc(C)cc4)c(C)n3n2)c1", "DNA polymerase iota (Homo sapiens) (UniProt Q9UNA4)", "inactive"),
    ("Cc1nc2ccc(S(=O)(=O)NC(C(=O)NCc3ccccc3Cl)C(C)C)cc2s1 (stereo not drawn)", "DNA polymerase iota (Homo sapiens) (UniProt Q9UNA4)", "inactive"),
    ("CCOc1ccc(NC(=O)c2ncoc2-c2ccco2)cc1", "DNA polymerase iota (Homo sapiens) (UniProt Q9UNA4)", "inactive"),
    ("Cc1cccn2c(=O)c3cc(C(=O)NC(C)c4ccccc4)c(=N)n(CCCO)c3nc12 (stereo not drawn)", "DNA polymerase iota (Homo sapiens) (UniProt Q9UNA4)", "inactive"),
    ("COc1ccc(-c2nc(S(=O)(=O)c3ccccc3)c(N3CCCCC3)o2)cc1", "DNA polymerase iota (Homo sapiens) (UniProt Q9UNA4)", "inactive"),
    ("CN(C)NC(=O)C(NC(=O)c1ccc(N)cc1)C12CC3CC(CC(C3)C1)C2 (stereo not drawn)", "DNA polymerase iota (Homo sapiens) (UniProt Q9UNA4)", "active"),
]
